The reported measurements were obtained from patent US20230286970A1.

Experiment: Stability in human plasma
Conditions: after 4 hours, 37° C.
endpointName: residual percentage in HUMAN PLASMA (%)

In [3]: df
Out[3]:
                                   molecule  unitinfo  measurednumber
0  FC(F)c1nnc(-c2ccc(Cn3nnc(-c4cccc(-c5nc6c([nH]5)CCNC6)c4)n3)cc2)o1 [compound 108]         %              78
1  Nc1ccc(-c2cn(Cc3ccc(-c4nnc(C(F)F)o4)c(F)c3)nn2)cn1 [compound 15]         %              81
2  CC(c1ccc(-c2nnc(C(F)F)o2)cc1F)n1cc(-c2ccc(N)nc2)nn1 (centres unmarked) [compound 185]         %              97
3  Nc1ccc(-c2nnn(Cc3ccc(-c4nnc(C(F)F)o4)cc3)n2)cn1 [compound 64]         %              69
4  O=C(c1cccc(-c2nnn(Cc3ccc(-c4nnc(C(F)F)o4)cn3)n2)c1)N1CCOCC1 [compound 69]         %              79
5  O=C(Nc1ccc(-c2nnc(Cc3ccc(-c4nnc(C(F)F)o4)cn3)s2)cn1)C(F)F [Compd. 102]         %              92
6  Nc1cncc(-c2nnn(Cc3ccc(-c4nnc(C(F)F)o4)cc3)n2)c1 [compound 90]         %              80
7  O=C1NCc2ccc(-c3nnn(Cc4ccc(-c5nnc(C(F)F)o5)c(F)c4)n3)cc21 [compound 97]         %              76

* * *

Biological target: recombinant human HDAC1 (Homo sapiens (Human), UniProt Q13547)
Sequence (Q13547 whole entry): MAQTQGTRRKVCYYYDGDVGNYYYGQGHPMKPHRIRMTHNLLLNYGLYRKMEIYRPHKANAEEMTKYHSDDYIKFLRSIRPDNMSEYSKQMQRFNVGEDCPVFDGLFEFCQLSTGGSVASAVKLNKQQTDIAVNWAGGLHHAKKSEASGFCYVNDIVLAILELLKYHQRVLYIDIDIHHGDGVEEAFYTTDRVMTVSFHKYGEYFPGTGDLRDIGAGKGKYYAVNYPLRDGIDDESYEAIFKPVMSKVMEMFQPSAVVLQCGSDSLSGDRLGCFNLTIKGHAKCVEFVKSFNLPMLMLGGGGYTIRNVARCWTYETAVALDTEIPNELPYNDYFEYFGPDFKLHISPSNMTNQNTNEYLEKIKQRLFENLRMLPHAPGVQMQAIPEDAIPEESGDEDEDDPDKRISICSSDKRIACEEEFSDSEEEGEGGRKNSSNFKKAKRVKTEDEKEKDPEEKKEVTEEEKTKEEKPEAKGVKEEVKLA
Assay: Enzymatic screening, HDAC1 inhibition (fluorogenic FdL_G substrate)
pIC50: −log10 of the molar value.
endpointName: pIC50

Solved entries:
In [3]: df
Out[3]:
                                   compound  result
0  Fc1cc(Cc2nc(-c3ccc(NC4=NCCN4)cc3)no2)ccc1-c1nnc(C(F)F)o1  < 3.00
1  O=C1NCc2ccc(-c3nnn(Cc4ccc(-c5nnc(C(F)F)o5)cn4)n3)cc21  < 3.70
2  Nc1nc2ccc(-c3cnn(Cc4ccc(-c5nnc(C(F)F)o5)cc4)c3)cc2s1  < 3.00
3  COc1ccccc1-c1cn(Cc2ccc(-c3nnc(C(F)F)o3)cc2)nn1  < 3.70
4  Nc1nc2ccc(-c3cnn(Cc4ccc(-c5nnc(C(F)F)o5)cn4)c3)cc2s1  < 3.00
5  CC(C)(C)OC(=O)N1CCC2(C1)C(=O)Nc1ccc(-c3cn(Cc4ccc(-c5nnc(C(F)F)o5)cn4)nn3)cc12 (single isomer, unassigned) [compound 265]  < 3.70

stdin: Give the reported pIC50 for this compound. O=C1Nc2ccc(-c3cn(Cc4ccc(-c5nnc(C(F)F)o5)cc4)nn3)cc2C12CCNCC2
stdout: < 3.70

* * *

Assay: Stability to Phase I metabolism in human S9 liver fraction
Details: after 90 minutes, 37° C.
endpointName: residual percentage in HUMAN S9 FRACTION (%)

I = COc1ccc(-c2nnn(Cc3ccc(-c4nnc(C(F)F)o4)cc3)n2)cc1OC
II = FC(F)c1nnc(-c2ccc(Cn3nnc(-c4csc5ccccc45)n3)cc2)o1
stdin: Could you check which of I and II has a smaller value for residual percentage in HUMAN S9 FRACTION? Answer = label.
stdout: I

1 = O=C(Nc1cccc(-c2cn(Cc3ccc(-c4nnc(C(F)F)o4)cn3)cn2)c1)N1CCOCC1
2 = FC(F)c1nnc(-c2ccc(Cn3nnnc3-c3csc4ccccc34)cc2)o1
stdin: Hi team, can someone confirm which has the larger residual percentage in HUMAN S9 FRACTION: 1 or 2 ? Thanks. The response must carry the label of the picked entry.
stdout: 1
(1: 93%, 2: 54%)

* * *

Biological target: recombinant human HDAC6 (Homo sapiens (Human))
Assay: Enzymatic screening, HDAC6 inhibition (fluorogenic FdL_G substrate)
pIC50: −log10 of the molar value.
endpointName: pIC50

Field: example entries. Status: answers known.
                                   compound                                  testedon  measurednumber
0  CC(c1ccc(-c2nnc(C(F)F)o2)c(F)c1)n1cc(-c2cccc(NC(=O)N3CCOCC3)c2)nn1 (centres unmarked) [compound 189]  recombinant human HDAC6 (Homo sapiens (Human))            7.00
1  CC(C)(C)OC(=O)N1CCC2(CC1)Nc1cc(-c3cn(Cc4ccc(-c5nnc(C(F)F)o5)cc4)nn3)ccc1NC2=O [compound 268]  recombinant human HDAC6 (Homo sapiens (Human))            6.60

A = Nc1nc2cc(-c3nnn(Cc4ccc(-c5nnc(C(F)F)o5)cc4)n3)ccc2o1 [compound 152]
B = CCNc1ccc(-c2nnn(Cc3ccc(-c4nnc(C(F)F)o4)cc3)n2)cn1 [compound 99]
stdin: When the recorded pIC50 values are compared, which is smaller: that of A or that of B ? Give the chosen item's label as your response.
stdout: A
(A: 7.19, B: 7.42)

a = CCNC(=O)c1cccc(-c2nnn(Cc3ccc(-c4nnc(C(F)F)o4)cc3)n2)c1 [compound 91]
b = Nc1nc2ccc(-c3cn(Cc4ccc(-c5nnc(C(F)F)o5)cn4)cn3)cc2s1 [compound 307]
stdin: // compare: a vs b , metric pIC50, want the smaller Field: selected label. Fill in the label of the entry you choose.
stdout: a
(a: 7.46, b: 7.96)

P = FC(F)c1nnc(-c2ccc(Cn3nnc(-c4ccc5cnccc5c4)n3)c(Cl)c2)o1 [compound 426]
Q = O=C1Cc2cc(-c3cn(Cc4ccc(-c5nnc(C(F)F)o5)cn4)nn3)ccc2N1 [compound 325]
R = Nc1ccc(-c2noc(Cc3ccc(-c4nnc(C(F)F)o4)cc3)n2)cn1 [compound 135]
S = Fc1ccccc1-c1nnn(Cc2ccc(-c3nnc(C(F)F)o3)cc2)n1 [compound 181]
T = Nc1ncnc2cc(-c3cn(Cc4ccc(-c5nnc(C(F)F)o5)cc4F)nn3)ccc12 [compound 387]
stdin: Ascending by pIC50, please: list the compounds accordingly. Return the labels ranked in the requested order, please.
stdout: P, S, R, Q, T
(P: 6.46, S: 7.04, R: 7.28, Q: 7.59, T: 7.92)

* * *

Target: recombinant human HDAC1 (Homo sapiens (Human), UniProt Q13547)
Experiment: Enzymatic screening, HDAC1 inhibition (fluorogenic FdL_G substrate)
endpointName: IC50

Please review the entries below; each comes with its answer.
>>> print(df.to_string())
                                 smilesrepr  endpointname     result
0  CCNc1ccc(-c2nnn(Cc3ccc(-c4nnc(C(F)F)o4)cc3)n2)cn1          IC50   > 200 µM
1  Cn1c(Sc2c(F)cc(-c3nnc(C(F)F)o3)cc2F)nnc1-c1ccc(N)nc1          IC50   > 200 µM
2  O=C1Cc2cc(-c3cn(Cc4ccc(-c5nnc(C(F)F)o5)cn4)nn3)ccc2N1          IC50  > 1000 µM

Shift focus to the following entry.
stdin: Complete the entry with IC50 for CN(C)S(=O)(=O)c1ccc(F)c(-c2nnn(Cc3ccc(-c4nnc(C(F)F)o4)cc3)n2)c1
stdout: > 200 µM

* * *

Biological target: recombinant human HDAC6 (Homo sapiens (Human), UniProt Q9UBN7)
Sequence (Q9UBN7 whole entry): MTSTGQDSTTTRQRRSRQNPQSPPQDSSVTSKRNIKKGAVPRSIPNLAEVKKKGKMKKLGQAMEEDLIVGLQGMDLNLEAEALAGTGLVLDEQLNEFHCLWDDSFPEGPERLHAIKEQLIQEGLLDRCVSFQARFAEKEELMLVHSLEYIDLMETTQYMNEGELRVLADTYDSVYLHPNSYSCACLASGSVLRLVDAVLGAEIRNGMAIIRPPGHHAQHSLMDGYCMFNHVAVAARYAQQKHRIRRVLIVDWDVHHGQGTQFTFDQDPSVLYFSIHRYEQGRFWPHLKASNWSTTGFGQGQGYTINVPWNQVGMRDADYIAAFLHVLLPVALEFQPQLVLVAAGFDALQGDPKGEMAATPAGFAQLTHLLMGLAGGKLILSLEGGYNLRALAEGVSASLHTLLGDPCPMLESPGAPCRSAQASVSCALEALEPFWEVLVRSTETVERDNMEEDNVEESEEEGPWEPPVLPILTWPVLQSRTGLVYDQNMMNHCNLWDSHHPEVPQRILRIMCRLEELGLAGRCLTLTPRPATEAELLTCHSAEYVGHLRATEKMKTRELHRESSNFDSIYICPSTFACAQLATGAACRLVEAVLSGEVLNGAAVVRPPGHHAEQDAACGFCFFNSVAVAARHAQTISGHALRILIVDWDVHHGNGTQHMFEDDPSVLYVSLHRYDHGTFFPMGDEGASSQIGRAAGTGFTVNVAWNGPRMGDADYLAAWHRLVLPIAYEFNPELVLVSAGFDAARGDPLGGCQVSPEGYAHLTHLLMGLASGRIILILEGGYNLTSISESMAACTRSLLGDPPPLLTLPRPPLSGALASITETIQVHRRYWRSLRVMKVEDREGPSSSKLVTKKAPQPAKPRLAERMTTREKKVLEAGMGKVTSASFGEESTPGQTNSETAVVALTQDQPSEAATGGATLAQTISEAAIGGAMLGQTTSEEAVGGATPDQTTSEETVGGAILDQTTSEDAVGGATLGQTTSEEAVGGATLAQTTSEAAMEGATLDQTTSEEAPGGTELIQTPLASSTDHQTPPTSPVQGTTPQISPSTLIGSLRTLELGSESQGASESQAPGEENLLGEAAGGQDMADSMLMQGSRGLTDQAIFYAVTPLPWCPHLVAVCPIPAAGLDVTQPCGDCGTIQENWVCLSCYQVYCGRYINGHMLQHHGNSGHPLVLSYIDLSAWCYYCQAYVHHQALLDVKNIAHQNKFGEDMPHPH
Assay: Enzymatic screening, HDAC6 inhibition (fluorogenic FdL_G substrate)
endpointName: IC50 (nM)

In [3]: df
Out[3]:
                                   molecule                                  testedon  measurednumber
0  O=C(NCC1CC1)C1CCCN(C(=O)c2ccc(-c3cn(Cc4c(F)cc(-c5nnc(C(F)F)o5)cc4F)nn3)cc2)C1 (centres unmarked)  recombinant human HDAC6 (Homo sapiens (Human), UniProt Q9UBN7)             215
1  O=C1NCc2ccc(-c3nnn(Cc4ncc(-c5nnc(C(F)F)o5)cn4)n3)cc21  recombinant human HDAC6 (Homo sapiens (Human), UniProt Q9UBN7)              41
2  FCc1nnc(-c2ccc(Cc3nc(-c4ccc(NC5=NCCN5)cc4)no3)cc2)o1  recombinant human HDAC6 (Homo sapiens (Human), UniProt Q9UBN7)              19

a = NC(=O)c1cccc(-c2nnn(Cc3ccc(-c4nnc(C(F)F)o4)cc3F)n2)c1
b = FC(F)c1nnc(-c2ccc(Cn3nnc(-c4cccc(-c5cnc(N6CCOCC6)s5)c4)n3)nc2)o1
c = O=C1NCc2ccc(-c3nnnn3Cc3ncc(-c4nnc(C(F)F)o4)cn3)cc21
stdin: Put the molecules in ascending order of IC50. Response field: labels, in requested order.
stdout: a, b, c

* * *

The entries below come with measured IC50 values attached.
Biological target: recombinant human HDAC1 (Homo sapiens (Human), UniProt Q13547)
Test: Enzymatic screening, HDAC1 inhibition (fluorogenic FdL_G substrate)

stdin: Name the value of IC50 reported for CC(=O)Nc1cc(-c2nnn(Cc3ccc(-c4nnc(C(F)F)o4)cc3)n2)cnc1C when tested on recombinant human HDAC1 (Homo sapiens (Human), UniProt Q13547).
stdout: > 200 µM
